target: T1, human Tumour Necrosis Factor alpha (hTNFα) (human, UniProt P01375 77-233); assay: kinetics on hTNFα, Table 1 (instrument for Ka/Kd not stated)
T1 construct: Coated on ELISA plates, amine-coupled to the BIAcore chip, or biotinylated on Octet streptavidin sensors; soluble in the L929 assay; also called rhTNFα; hTNF-alpha
T1 sequence (P01375 77-233 limits assumed): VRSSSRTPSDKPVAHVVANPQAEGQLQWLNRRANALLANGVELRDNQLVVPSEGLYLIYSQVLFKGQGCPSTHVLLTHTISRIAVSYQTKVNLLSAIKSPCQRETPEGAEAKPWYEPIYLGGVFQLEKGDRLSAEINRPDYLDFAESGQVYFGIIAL
ATTRIBUTE MEASURED: koff (s⁻¹)
Quick note: give the figure in s⁻¹, leave out the unit.

Exercise: For the binder shown here, TNF VNAR D1-BA11-B4 (VNAR, Tandem VNAR trimer with His and myc tags) ARVDQTPQTITKETGESLTINCVLRDSHCATSSTYWYRKKSGSTNEESISKGGRYVETVNSGSKSFSLRINDLTVEDSGTYRCASECQYGLAEYDVYGGGTVVTVNGGGGSGGGGSGGGGSGGGGSGAHSTRVDQSPSSLSASVGDRVTITCVLTDTSYPLYSTYWYRKNPGSSNKEQISISGRYSESVNKGTKSFTLTISSLQPEDSATYYCRAMSTNIWTGDGAGTKVEIKGGGGSGGGGSGGGGSGGGGSGAHSARVDQTPQTITKETGESLTINCVLRDSNCALSSMYWYRKKSGSTNEESISKGGRYVETVNSGSKSFSLRINDLTVEDSGTYRCKVYIPCIDELVYMISGGTSGPIHDVYGGGTVVTVNHHHHHHHEQKLISEEDL , give the reported koff.
Solution: 0.006

Exercise: // lookup koff for TNF VNAR D1-BA11-D1 (VNAR, Tandem VNAR trimer with His and myc tags) ARVDQTPQTITKETGESLTINCVLRDSHCATSSTYWYRKKSGSTNEESISKGGRYVETVNSGSKSFSLRINDLTVEDSGTYRCASECQYGLAEYDVYGGGTVVTVNGGGGSGGGGSGGGGSGGGGSGAHSTRVDQSPSSLSASVGDRVTITCVLTDTSYPLYSTYWYRKNPGSSNKEQISISGRYSESVNKGTKSFTLTISSLQPEDSATYYCRAMSTNIWTGDGAGTKVEIKGGGGSGGGGSGGGGSGGGGSGAHSARVDQTPQTITKETGESLTINCVLRDSHCATSSTYWYRKKSGSTNEESISKGGRYVETVNSGSKSFSLRINDLTVEDSGTYRCASECQYGLAEYDVYGGGTVVTVNHHHHHHHEQKLISEEDL
Solution: 0.0002

Exercise: Consider the binder shown here: TNF VNAR DIMER D1-B4 (VNAR) ARVDQTPQTITKETGESLPINCVLRDSHCATSSTYWYRKKSGSTNEESISKGGRYVETVNSGSKSFSLRINDLTVEDSGTYRCASECQYGLAEYDVYGGGTVVTVNGGGGSGGGGGSGAHSARVDQTPQTITKETGESLTINCVLRDSNCALSSMYWYRKKSGSTNEESISKGGRYVETVNSGSKSFSLRINDLTVEDSGTYRCKVYIPCIDELVYMISGGTSGPIHDVYGGGTVVTVNAAAHHHHHHGAAEQKLISEEDL What is its recorded koff?
Solution: 0.0005
